# Target Desc: recombinant human ARG1 (Homo sapiens)
# Sequence (P05089 1-322): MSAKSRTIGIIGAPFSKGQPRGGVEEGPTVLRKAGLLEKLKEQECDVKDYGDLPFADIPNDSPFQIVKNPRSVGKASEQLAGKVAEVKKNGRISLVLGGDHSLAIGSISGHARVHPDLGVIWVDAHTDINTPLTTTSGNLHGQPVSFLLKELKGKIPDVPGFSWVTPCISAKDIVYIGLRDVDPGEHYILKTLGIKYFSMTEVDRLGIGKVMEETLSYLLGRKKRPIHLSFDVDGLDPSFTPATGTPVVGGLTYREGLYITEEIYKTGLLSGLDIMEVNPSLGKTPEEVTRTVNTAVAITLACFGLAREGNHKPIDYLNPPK
# Protocol Description: Recombinant arginase activity assay, hARG1
# Stated Conditions: 1 h at 37°C, pH 7.4, 10 mM L-arginine, urea detection; read-out: Inhibition of recombinant hARG1: IC50
Readout Name: IC50 (nM)
Quick reminder: number only, in nM, skip the unit.

Example results:
* NC(CCCCB(O)O)(CCNCCCc1ccc(Cl)cc1Cl)C(=O)O (stereo not drawn) [OAT-90, reference compound] | 151
* CN(C)C[C@@H]1CC[C@@H](CCB(O)O)C[C@]1(N)C(=O)O | 28

Now for another entry.
*Q* So what's the measured IC50 for this one? `N[C@@H](CCCCB(O)O)C(=O)O`
*A* 1080
